Each entry below carries its reported photoluminescence quantum yield.
Assay: photoluminescence quantum yield (fraction); solvent given as SMILES
Conditions: in OCC(F)(F)F

{"Molecule": "COC(=O)C(Cc1ccc2oc(-c3ccc(N(c4ccccc4)c4ccccc4)cc3)nc2c1)NC(=O)OC(C)(C)C (stereo not given)", "photoluminescence quantum yield": 0.05}
{"Molecule": "FC(F)(F)C(F)(F)C(F)(F)C(F)(F)C(F)(F)C(F)(F)C(F)(F)C(F)(F)CCOc1nnc(Cl)nn1", "photoluminescence quantum yield": 0.28}
{"Molecule": "Cc1ccc(C2=C3C=C(I)C=[N+]3[B-](F)(F)n3cccc32)cc1", "photoluminescence quantum yield": 0.009}
{"Molecule": "CCC1=C(C)C2=C(C)c3cc(I)c(I)n3[B-](F)(F)[N+]2=C1C", "photoluminescence quantum yield": 0.11}
{"Molecule": "Cc1cc2c(o1)c(Br)cc1c(C)cc(=O)oc12", "photoluminescence quantum yield": 0.005}
{"Molecule": "C#CCNC1=C2C(C)=CC(C)=[N+]2[B-](F)(F)n2c(C)cc(C)c21", "photoluminescence quantum yield": 0.074}
{"Molecule": "Cc1ccc(C2=C3C=C(I)C=[N+]3[B-](F)(F)n3cc(I)cc32)cc1", "photoluminescence quantum yield": 0.006}
{"Molecule": "NC(=O)CC[C@H](/[NH+]=C\\C=C1\\C=C(C(=O)O)N[C@H](C(=O)O)C1)C(=O)O", "photoluminescence quantum yield": 0.014}
{"Molecule": "Cc1ccc(C2=C3C=CC=[N+]3[B-](F)(F)n3cccc32)cc1", "photoluminescence quantum yield": 0.031}
{"Molecule": "Cc1cc(=O)oc2c3c4c(cc12)CCCN4CCC3", "photoluminescence quantum yield": 0.84}
